This listing pairs binders with measured FPN EC50.
subject_of_test: T1, human ferroportin (SLC40A1) fused in frame with GFP (human) (UniProt Q9NP59)
T1 sequence (looked up): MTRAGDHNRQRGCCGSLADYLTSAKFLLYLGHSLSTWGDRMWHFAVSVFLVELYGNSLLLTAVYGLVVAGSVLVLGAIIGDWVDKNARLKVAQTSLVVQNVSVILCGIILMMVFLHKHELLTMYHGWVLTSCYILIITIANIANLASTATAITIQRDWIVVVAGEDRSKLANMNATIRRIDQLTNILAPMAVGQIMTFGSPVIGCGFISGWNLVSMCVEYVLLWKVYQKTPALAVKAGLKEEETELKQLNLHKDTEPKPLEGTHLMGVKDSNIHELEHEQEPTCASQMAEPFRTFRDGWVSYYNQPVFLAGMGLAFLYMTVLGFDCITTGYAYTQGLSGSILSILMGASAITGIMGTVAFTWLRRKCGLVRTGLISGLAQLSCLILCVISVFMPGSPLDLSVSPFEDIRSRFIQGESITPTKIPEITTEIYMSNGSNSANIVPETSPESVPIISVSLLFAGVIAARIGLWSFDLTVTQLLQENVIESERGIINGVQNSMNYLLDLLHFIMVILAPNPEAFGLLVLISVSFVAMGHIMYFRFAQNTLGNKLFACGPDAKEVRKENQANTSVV
procedure_details: cell-based or functional assay
Positions of bridges follow the written chain, without caps; N, C: chain ends. Non-standard residues stand in square brackets, D forms with d. Groups on a side chain read outwards from the residue. *: point of attachment. Dip = N[C@H](C(=O)O)C(c1ccccc1)c1ccccc1; Arg(Dimethyl) = dimethyl-arginine; Palmitoyl = CCCCCCCCCCCCCCCC(=O)*; β3hF = N[C@H](CC(=O)O)Cc1ccccc1; Isovaleryl = CC(C)CC(=O)*; Ahx = NCCCCCC(=O)O
Just so you know, I need the unit written after the number.

• DTHFPCIKXKKC (N-term isovaleric acid; 8 (D)Lys; 9 bhPhe; 10 Lys(Palm); C-term NH2) [Compd. ID 205] = 4.23 nM
• Isovaleryl-DTH[Dip]PCI[Arg(Dimethyl)][β3hF]K([Ahx-Palmitoyl])[dK]C-NH2 (disulfide 6-12 (inferred)) [Compd. ID 29] = 10.6 nM

Please examine the following record next.
For the binder DTHXPCIKXKKC (N-term isovaleric acid; 4 Dpa; 8 (D)Lys; 9 bhPhe; 10 Lys[Palm]; C-term NH2) [Compd. ID 16] , report FPN EC50. 5.85 nM
